- assayed_target: Recombinant human CSF1R kinase (Homo sapiens (Human))
- Sequence (P07333 20-972): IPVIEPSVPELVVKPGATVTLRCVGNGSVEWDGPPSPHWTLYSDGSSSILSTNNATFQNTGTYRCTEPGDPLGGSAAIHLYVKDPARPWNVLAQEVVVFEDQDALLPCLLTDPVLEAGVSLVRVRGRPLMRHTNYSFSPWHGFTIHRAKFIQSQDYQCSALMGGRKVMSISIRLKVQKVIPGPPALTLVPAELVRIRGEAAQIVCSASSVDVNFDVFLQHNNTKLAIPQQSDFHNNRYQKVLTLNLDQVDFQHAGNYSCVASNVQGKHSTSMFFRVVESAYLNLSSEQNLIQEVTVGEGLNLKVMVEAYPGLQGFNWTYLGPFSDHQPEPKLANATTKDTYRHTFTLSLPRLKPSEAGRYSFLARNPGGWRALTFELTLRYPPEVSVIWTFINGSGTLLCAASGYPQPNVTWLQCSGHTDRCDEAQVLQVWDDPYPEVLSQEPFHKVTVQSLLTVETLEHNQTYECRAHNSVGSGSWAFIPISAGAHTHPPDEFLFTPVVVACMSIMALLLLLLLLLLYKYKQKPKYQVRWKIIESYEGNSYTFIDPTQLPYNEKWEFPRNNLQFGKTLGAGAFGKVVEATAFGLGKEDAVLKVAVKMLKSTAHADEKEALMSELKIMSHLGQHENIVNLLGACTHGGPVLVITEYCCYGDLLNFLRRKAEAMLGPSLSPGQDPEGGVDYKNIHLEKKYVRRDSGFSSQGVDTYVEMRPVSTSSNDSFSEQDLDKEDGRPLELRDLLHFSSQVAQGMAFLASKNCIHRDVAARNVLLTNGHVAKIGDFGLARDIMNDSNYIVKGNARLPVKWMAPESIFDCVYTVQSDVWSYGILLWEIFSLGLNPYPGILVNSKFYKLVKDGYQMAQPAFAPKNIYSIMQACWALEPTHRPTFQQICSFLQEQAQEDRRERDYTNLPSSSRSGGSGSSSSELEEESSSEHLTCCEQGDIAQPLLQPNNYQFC
- assay_context: Z-LYTE Tyr 1 peptide substrate
Please respond with reported pIC50 for every item in the list.
Hey, just a heads up that pIC50 is the negative log base 10 of the concentration in molar.

Query string: Need pIC50, item Cc1ccc(-c2cc(Oc3ccc(NC(=O)c4cccn(C(C)C)c4=O)nc3)ccn2)cn1
Result string: 8.15

Query string: If you can, please state the reported pIC50 value of Cc1c(F)cc(C(=O)Nc2ccc(Oc3ccnc(-c4cnn(C)c4)c3)cn2)c(=O)n1C .
Result string: 8.05

Query string: Given Cc1ncc(C(=O)Nc2ccc(Oc3ccnc(Nc4ccn(C(F)F)n4)c3)cn2)c(=O)n1C , state its recorded pIC50.
Result string: 8.15

Query string: Please look up its pIC50: Cn1cc(-c2cc(Oc3ccc(NC(=O)c4cnc(CO)[nH]c4=O)nc3)ccn2)cn1
Result string: 6.26

Query string: Entry under review: COc1ccc(C(=O)Nc2ccc(Oc3ccnc(-c4cnn(C)c4)c3)cn2)c(=O)n1C . Reported pIC50?
Result string: 8.30

Query string: Find the recorded pIC50 belonging to CC(C)c1ncc(C(=O)Nc2ccc(Oc3ccnc(-c4cnn(C)c4)c3)cn2)c(=O)n1C and report it.
Result string: 7.96

Query string: Can you share its pIC50? I mean this compound: Cc1cc(Oc2ccnc(-c3cnn(C)c3)c2)ccc1NC(=O)c1cccn(C(C)C)c1=O
Result string: 6.56

Query string: Endpoint output: pIC50 of CC(C)n1cccc(C(=O)Nc2ccc(Oc3ccnc(-c4ccnn4C)c3)cn2)c1=O . Value?
Result string: 7.49

Query string: # get_value(readout='pIC50', item= Cn1cc(Nc2cc(Oc3cnc(NC(=O)c4cccn(C)c4=O)c(F)c3)ccn2)cn1 )
Result string: 7.18

Query string: # query: pIC50 of entry Cc1cc(Oc2ccnc(-c3cnn(C)c3)c2)cnc1NC(=O)c1cccn(C(C)C)c1=O
Result string: 7.52

Query string: Consider the compound Cn1ncc(-c2cc(Oc3ccc(NC(=O)c4cccn(C)c4=O)nc3)ccn2)n1 and give its measured pIC50.
Result string: 7.15

Query string: Reported pIC50 for Cc1ncc(C(=O)Nc2ccc(Oc3ccnc(-c4cnn(C(F)F)c4)c3)cn2)c(=O)n1C : what is it?
Result string: 7.64

Query string: Query: pIC50; subject: Cn1cc(-c2cc(Oc3cnc(NC(=O)c4cccn(C)c4=O)c(F)c3)ccn2)cn1
Result string: 7.96

Query string: Query: pIC50; subject: [2H]C([2H])([2H])n1c(C)ncc(C(=O)Nc2ccc(Oc3ccnc(-c4cnn(C)c4)c3)cn2)c1=O
Result string: 8.30

Query string: Any idea what its pIC50 is? The compound is Cc1ncc(C(=O)Nc2ccc(Oc3ccnc(-c4cn(C)cn4)c3)cn2)c(=O)n1C
Result string: 7.46

Query string: // returns reported pIC50 for input Cn1cc(-c2cc(Oc3ccc(NC(=O)c4nccn(C)c4=O)nc3)ccn2)cn1
Result string: 7.16

Query string: I have this compound here, CC(C)n1cccc(C(=O)Nc2ccc(Oc3ccnc(-c4ncn(C)n4)c3)cn2)c1=O , and I need its recorded pIC50.
Result string: 7.47

Query string: Look up pIC50: CN(C)CCn1cccc(C(=O)Nc2ccc(Oc3ccnc(-c4cnn(C)c4)c3)cn2)c1=O
Result string: 7.47

Query string: Endpoint output: pIC50 of Cn1cc(Nc2cc(Oc3ccc(NC(=O)c4cc(F)cn(C)c4=O)nc3)ccn2)cn1 . Value?
Result string: 7.82

Query string: Request the reported pIC50 associated with Cc1cn(-c2cc(Oc3ccc(NC(=O)c4cnc(C)n(C)c4=O)nc3)ccn2)cn1
Result string: 7.23

Query string: What value of pIC50 has been recorded for this entry: Cc1ncc(C(=O)Nc2ncc(Oc3ccnc(-c4cnn(C)c4)c3)cc2F)c(=O)n1C
Result string: 7.66

Query string: If you can, please state the reported pIC50 value of Cc1nc(-c2cc(Oc3ccc(NC(=O)c4cnc(C)n(C)c4=O)nc3)ccn2)cs1 .
Result string: 7.28

Query string: Need pIC50 of Cn1cc(-c2cc(Oc3ccc(NC(=O)c4ccc[nH]c4=O)nc3)ccn2)cn1 , thanks.
Result string: 7.92

Query string: Consider the compound Cc1ncc(C(=O)Nc2ccc(Oc3cc(-c4cnn(C)c4)ncn3)cn2)c(=O)n1C and give its measured pIC50.
Result string: 7.66

Query string: // lookup pIC50 for CC(C)n1ccnc(C(=O)Nc2ccc(Oc3ccnc(-c4cnn(C)c4)c3)cn2)c1=O
Result string: 6.92

Query string: Which pIC50 reading was recorded for the compound Cc1nc(NC(=O)c2cccn(C(C)C)c2=O)ccc1Oc1ccnc(-c2cnn(C)c2)c1 ?
Result string: 7.77

Query string: Could you tell me which pIC50 is on file for Cc1cccc(Nc2cc(Oc3ccc(NC(=O)c4cnc(C)n(C)c4=O)nc3)ccn2)n1 ?
Result string: 7.55

Query string: Form field: reported pIC50 of CC(C)n1cccc(C(=O)Nc2ncc(Oc3ccnc(-c4cnn(C)c4)c3)cc2F)c1=O
Result string: 7.96

Query string: Sample Cn1cc(-c2cc(Oc3ccc(NC(=O)c4cccn(C5CCC5)c4=O)nc3)ccn2)cn1 — what was its pIC50?
Result string: 8.10

Query string: Recorded pIC50 for CC(C)n1cncc(C(=O)Nc2ccc(Oc3ccnc(-c4cnn(C)c4)c3)cn2)c1=O , please?
Result string: 8.40

Query string: Would you mind telling me what pIC50 value was observed for [2H]C([2H])([2H])n1cc(-c2cc(Oc3ccc(NC(=O)c4cnc(C)n(C)c4=O)nc3)ccn2)cn1 ?
Result string: 8.40

Query string: Which value of pIC50 has been reported for Cn1cc(-c2cc(Oc3ccc(NC(=O)c4cnc5n(c4=O)CCC5)nc3)ccn2)cn1 in the records?
Result string: 8.30
